Here's a batch of compounds along with measured Ki for 5-HT2B (Homo sapiens).
Respond numerically; units are nM and should not be typed.

So what's the measured Ki for this one? CC(=O)Nc1cccc2[nH]cc(CCN(C)C)c12 [drawing 8]
700

# repeat for CC(C)N(CCc1c(Br)[nH]c2ccccc12)C(C)C [drawing 6]
45.2

# repeat for CC(=O)Oc1cccc2[nH]cc(CCN(C)C)c12 [drawing 4]
11.6

# repeat for CN(C)CCc1c(Br)[nH]c2ccccc12 [drawing 2]
222

# repeat for CC(=O)Oc1cccc2[nH]c(Br)c(CCN(C)C)c12 [drawing 5]
67.7

# repeat for CN(C)CCc1c[nH]c2cccc(NS(C)(=O)=O)c12 [drawing 7]
1900

# repeat for CN(C)CCc1c(Cl)[nH]c2ccccc12 [drawing 3]
191

---

Assignment: determine reported Ki for the given molecules.
# ASSAY SYSTEM: 5-HT1D (Homo sapiens, UniProt P28221)
# Sequence (P28221 whole entry): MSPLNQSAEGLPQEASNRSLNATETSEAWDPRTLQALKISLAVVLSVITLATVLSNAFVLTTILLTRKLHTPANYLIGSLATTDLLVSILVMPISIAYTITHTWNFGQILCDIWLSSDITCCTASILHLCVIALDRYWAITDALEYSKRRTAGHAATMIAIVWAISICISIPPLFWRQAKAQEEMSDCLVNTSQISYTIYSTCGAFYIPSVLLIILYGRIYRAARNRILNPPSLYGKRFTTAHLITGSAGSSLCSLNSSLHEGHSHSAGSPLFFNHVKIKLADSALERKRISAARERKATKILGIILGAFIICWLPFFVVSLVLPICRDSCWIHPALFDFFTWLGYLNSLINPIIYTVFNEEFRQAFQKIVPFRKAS
# METHOD DESCRIPTION: Radioligand binding in vitro assay, 5-HT1D
# RUN PARAMETERS: radioligand binding; read-out: Ki 5-HT1D

Form field: Ki recorded for CN(C)CCc1c(Br)[nH]c2ccccc12 [drawing 2] with 5-HT1D (Homo sapiens, UniProt P28221) (enter value)
> 10 µM

# repeat for CC(=O)Oc1cccc2[nH]c(Br)c(CCN(C)C)c12 [drawing 5]
> 10 µM

# repeat for CN(C)CCc1c(Cl)[nH]c2ccccc12 [drawing 3]
> 10 µM

# repeat for CC(C)N(CCc1c(Br)[nH]c2ccccc12)C(C)C [drawing 6]
1.07 µM

---

Assignment: determine reported Ki for the given molecules.
# ASSAY SYSTEM: 5-HT6 (Homo sapiens)
# Sequence (P50406 whole entry): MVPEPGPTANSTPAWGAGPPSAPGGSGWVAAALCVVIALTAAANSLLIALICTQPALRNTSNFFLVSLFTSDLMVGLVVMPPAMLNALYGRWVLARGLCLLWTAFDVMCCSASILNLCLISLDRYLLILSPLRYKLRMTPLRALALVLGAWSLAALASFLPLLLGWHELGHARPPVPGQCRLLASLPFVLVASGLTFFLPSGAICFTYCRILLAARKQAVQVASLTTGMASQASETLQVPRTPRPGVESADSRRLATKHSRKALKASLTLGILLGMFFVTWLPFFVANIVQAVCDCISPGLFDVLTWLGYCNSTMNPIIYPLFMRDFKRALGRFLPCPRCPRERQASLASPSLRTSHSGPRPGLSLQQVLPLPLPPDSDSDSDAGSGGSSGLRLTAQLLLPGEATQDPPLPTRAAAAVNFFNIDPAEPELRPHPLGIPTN
# METHOD DESCRIPTION: Radioligand binding in vitro assay, 5-HT6
# RUN PARAMETERS: radioligand binding
Respond numerically; units are nM and should not be typed.

So what's the measured Ki for this one? CN(C)CCc1c(Cl)[nH]c2ccccc12 [drawing 10]
62

# repeat for CC(C)N(CCc1c(Br)[nH]c2ccccc12)C(C)C [drawing 13]
407

# repeat for CC(=O)Oc1cccc2[nH]c(Br)c(CCN(C)C)c12 [drawing 12]
70.7

---

# ASSAY SYSTEM: 5-HT1D (Homo sapiens, UniProt P28221)
# METHOD DESCRIPTION: Radioligand binding in vitro assay, 5-HT1D
REPORTED ENDPOINT: pKi
// pKi here means minus log10 of the molar concentration (mol/L)

So what's the measured pKi for this one? CN(C)CCc1c[nH]c2ccccc12 [N,N-dimethyltryptamine, reference compound]
7.37

---

# ASSAY SYSTEM: 5-HT2B (Homo sapiens, UniProt P41595)
# Sequence (P41595 whole entry): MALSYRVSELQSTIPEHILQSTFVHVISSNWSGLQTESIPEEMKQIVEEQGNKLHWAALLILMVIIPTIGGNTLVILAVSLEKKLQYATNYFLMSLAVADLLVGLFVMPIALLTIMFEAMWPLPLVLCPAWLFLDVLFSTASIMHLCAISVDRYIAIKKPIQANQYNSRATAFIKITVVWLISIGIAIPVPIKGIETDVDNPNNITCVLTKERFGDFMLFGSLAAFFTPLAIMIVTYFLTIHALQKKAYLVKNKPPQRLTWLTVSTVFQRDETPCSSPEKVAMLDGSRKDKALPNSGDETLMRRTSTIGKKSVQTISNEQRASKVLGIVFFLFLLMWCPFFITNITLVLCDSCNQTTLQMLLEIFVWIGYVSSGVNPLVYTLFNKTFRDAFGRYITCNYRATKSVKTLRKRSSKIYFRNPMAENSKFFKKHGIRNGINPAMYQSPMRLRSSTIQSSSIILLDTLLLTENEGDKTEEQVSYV
# METHOD DESCRIPTION: In vitro functional activity, 5-HT2B
# RUN PARAMETERS: agonism
Assignment: determine reported EC50 for the given compounds.
Respond numerically; units are nM and should not be typed.

Form field: EC50 recorded for CN(C)CCc1c(Br)[nH]c2ccccc12 [drawing 16] with 5-HT2B (Homo sapiens, UniProt P41595) (enter value)
799

# repeat for CC(C)N(CCc1c(Br)[nH]c2ccccc12)C(C)C [drawing 19]
18

---

# ASSAY SYSTEM: 5-HT5A (Homo sapiens, UniProt P47898)
# Sequence (P47898 whole entry): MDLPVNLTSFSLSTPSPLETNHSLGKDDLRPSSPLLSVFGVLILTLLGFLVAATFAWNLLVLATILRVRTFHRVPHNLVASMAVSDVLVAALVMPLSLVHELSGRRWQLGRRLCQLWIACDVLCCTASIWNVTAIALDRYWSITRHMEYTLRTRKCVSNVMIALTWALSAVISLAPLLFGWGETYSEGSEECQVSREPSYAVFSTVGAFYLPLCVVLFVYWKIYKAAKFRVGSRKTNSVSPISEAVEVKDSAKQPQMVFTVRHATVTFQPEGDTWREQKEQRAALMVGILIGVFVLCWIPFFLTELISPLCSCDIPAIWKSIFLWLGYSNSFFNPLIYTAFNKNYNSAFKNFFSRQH
# METHOD DESCRIPTION: Radioligand binding in vitro assay, 5-HT5A
REPORTED ENDPOINT: pKi
// pKi here means minus log10 of the molar concentration (mol/L)

So what's the measured pKi for this one? CN(C)CCc1c[nH]c2ccccc12 [N,N-dimethyltryptamine, reference compound]
6.81
